- Test system: 743489-274-T-PDC complex spheroid growth
- Protocol notes: Anticancer human tumor 743489-274-T-PDC patient-derived renal cell carcinoma cell line growth inhibition [AhR]
- Condition notes: second compound 0.1 µM; first compound 10 µM; stronger effect = lower value
- Description: Multicellular complex tumor spheroid response to aryl hydrocarbon receptor antagonists in combination with a variety of drugs and investigational agents in selected tumor cell lines […] Compounds. […] If the clinical Cmax for an agent had not been determined, the highest concentration tested was 10 microM (Table 1). […]
Quantity measured: viability, T/C (%)
Kindly provide the numeric value in % only, without the unit symbol.

- Molecule: "Nc1ccccc1NC(=O)c1ccc(CNC(=O)OCc2cccnc2)cc1 + CC(CO)NC(=O)c1cc(-c2ccc(Cl)cc2)nn(-c2cnn(C)c2)c1=O"
  Unit abbrev: "%"
  Numeric value: 32.9
- Molecule: "NS(=O)(=O)OCC1CC(n2ccc3c(NC4CCc5ccccc54)ncnc32)CC1O (configuration not stated) + CC(CO)NC(=O)c1cc(-c2ccc(Cl)cc2)nn(-c2cnn(C)c2)c1=O"
  Unit abbrev: "%"
  Numeric value: 155
- Molecule: "COc1cc(C2c3cc4c(cc3C(OC3OC5COC(C)OC5C(O)C3O)C3COC(=O)C23)OCO4)cc(OC)c1O (configuration not stated) + Cc1cncc(-c2nc(NCCc3c[nH]c4ccccc34)c3ncn(C(C)C)c3n2)c1"
  Unit abbrev: "%"
  Numeric value: 74.6
- Molecule: "COc1ccc([C@@H](O)c2cc(-c3ncnc4cc(N5CCOCC5)ccc34)c(F)cc2Cl)nn1 + Cc1ccccc1N=Nc1ccc(NC(=O)c2ccnn2C)c(C)c1"
  Unit abbrev: "%"
  Numeric value: 31.9
- Molecule: "O=C(C=Cc1cccc(S(=O)(=O)Nc2ccccc2)c1)NO + Cc1ccccc1N=Nc1ccc(NC(=O)c2ccnn2C)c(C)c1"
  Unit abbrev: "%"
  Numeric value: 31
- Molecule: "NS(=O)(=O)OCC1CC(n2ccc3c(NC4CCc5ccccc54)ncnc32)CC1O (configuration not stated) + Cc1cncc(-c2nc(NCCc3c[nH]c4ccccc34)c3ncn(C(C)C)c3n2)c1"
  Unit abbrev: "%"
  Numeric value: 154

Task: viability, T/C lookup needed for COc1cccc2c1C(=O)c1c(O)c3c(c(O)c1C2=O)CC(O)(C(=O)CO)CC3OC1CC(N)C(O)C(C)O1 (configuration not stated) + Cc1cncc(-c2nc(NCCc3c[nH]c4ccccc34)c3ncn(C(C)C)c3n2)c1 , thanks.
Output: 50.4

----------
Examples of molecules with documented pIC50 follow.
- Test system: 743489-274-T-PDC complex spheroid growth
- Protocol notes: Anticancer human tumor 743489-274-T-PDC cell line growth inhibition [AhR];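 further: spheroids exposed to agents for 7 days before readout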
- Condition notes: curve of first compound; second compound 10 µM
pIC50: −log10 of the molar value.

Solved entries:
- Molecule: "NS(=O)(=O)OCC1CC(n2ccc3c(NC4CCc5ccccc54)ncnc32)CC1O (configuration not stated) + CC(CO)NC(=O)c1cc(-c2ccc(Cl)cc2)nn(-c2cnn(C)c2)c1=O"
  System tested: "743489-274-T-PDC complex spheroid growth"
  pIC50: "< 5.00"
- Molecule: "COc1cc(Nc2ncc3c(n2)-c2ccc(Cl)cc2C(c2c(F)cccc2OC)=NC3)ccc1C(=O)O + CC(CO)NC(=O)c1cc(-c2ccc(Cl)cc2)nn(-c2cnn(C)c2)c1=O"
  System tested: "743489-274-T-PDC complex spheroid growth"
  pIC50: "< 5.00"
- Molecule: "CCN(c1cc(-c2ccc(CN3CCOCC3)cc2)cc(C(=O)NCc2c(C)cc(C)[nH]c2=O)c1C)C1CCOCC1 + Cc1cncc(-c2nc(NCCc3c[nH]c4ccccc34)c3ncn(C(C)C)c3n2)c1"
  System tested: "743489-274-T-PDC complex spheroid growth"
  pIC50: "< 5.52"

Task: Recorded pIC50 of Nc1ccn(C2OC(CO)C(O)C2(F)F)c(=O)n1 (configuration not stated) + CC(CO)NC(=O)c1cc(-c2ccc(Cl)cc2)nn(-c2cnn(C)c2)c1=O , please.
Output: < 5.00

Task: Name the recorded pIC50 for Nc1ncn(C2CC(O)C(CO)O2)c(=O)n1 (configuration not stated) + Cc1cncc(-c2nc(NCCc3c[nH]c4ccccc34)c3ncn(C(C)C)c3n2)c1 .
Output: < 6.00

Task: Given CC1COCCN1c1cc(C2(S(C)(=N)=O)CC2)nc(-c2ccnc3[nH]ccc23)n1 (configuration not stated) + CC(CO)NC(=O)c1cc(-c2ccc(Cl)cc2)nn(-c2cnn(C)c2)c1=O , state its recorded pIC50.
Output: < 5.00

Task: Need pIC50, item CC(C)c1c(-c2ccccc2)nc2c(C#N)c[nH]n2c1=O + Cc1ccccc1N=Nc1ccc(NC(=O)c2ccnn2C)c(C)c1
Output: < 5.00

----------
- Test system: 743489-274-T-PDC complex spheroid growth
- Protocol notes: Anticancer human tumor 743489-274-T-PDC cell line growth inhibition [AhR];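 further: spheroids exposed to agents for 7 days before readout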;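 on viability, T/C: 100% = DMSO vehicle control wells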
- Condition notes: second compound 0.1 µM; first compound 0.3 µM; stronger effect = lower value
Quantity measured: viability, T/C (%)
Unit % implied. Number only.

In the examples that follow, each entry is paired with its recorded viability, T/C.
- Compound: "CCN(c1cc(-c2ccc(CN3CCOCC3)cc2)cc(C(=O)NCc2c(C)cc(C)[nH]c2=O)c1C)C1CCOCC1 + Cc1ccccc1N=Nc1ccc(NC(=O)c2ccnn2C)c(C)c1"
  viability, T/C / %: 84.5
- Compound: "Nc1ncn(C2CC(O)C(CO)S2)c(=O)n1 (stereo not drawn) + CC(CO)NC(=O)c1cc(-c2ccc(Cl)cc2)nn(-c2cnn(C)c2)c1=O"
  viability, T/C / %: 114

Proceed to the following item.
Task: Would you mind telling me what viability, T/C value was observed for CC(C)CC(NC(=O)C(Cc1ccccc1)NC(=O)c1cnccn1)B(O)O (stereo not drawn) + Cc1ccccc1N=Nc1ccc(NC(=O)c2ccnn2C)c(C)c1 ?
Output: 4.06

----------
- Tested on: 743489-274-T-PDC complex spheroid growth
- Protocol notes: Anticancer human tumor 743489-274-T-PDC cell line growth inhibition [AhR];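 further: spheroids exposed to agents for 7 days before readout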;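 on viability, T/C: 100% = DMSO vehicle control wells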
- Condition notes: second compound 3.16 µM; first compound 0.03 µM; stronger effect = lower value
Field 'label' (enum: 1 (yes) / 0 (no)). Set to 1 (yes) when viability, T/C is strictly under 80%; else 0 (no).

Use the examples below as a reference point.
- Compound: "CCc1c2c(nc3ccc(O)cc13)-c1cc3c(c(=O)n1C2)COC(=O)[C@]3(O)CC + CC(CO)NC(=O)c1cc(-c2ccc(Cl)cc2)nn(-c2cnn(C)c2)c1=O"
  System tested: "743489-274-T-PDC complex spheroid growth"
  Group label: "0 (no)"
- Compound: "CCc1c2c(nc3ccc(O)cc13)-c1cc3c(c(=O)n1C2)COC(=O)[C@]3(O)CC + Cc1ccccc1N=Nc1ccc(NC(=O)c2ccnn2C)c(C)c1"
  System tested: "743489-274-T-PDC complex spheroid growth"
  Group label: "1 (yes)"
- Compound: "CC(C)CC(NC(=O)C(Cc1ccccc1)NC(=O)c1cnccn1)B(O)O (configuration not stated) + CC(CO)NC(=O)c1cc(-c2ccc(Cl)cc2)nn(-c2cnn(C)c2)c1=O"
  System tested: "743489-274-T-PDC complex spheroid growth"
  Group label: "1 (yes)"
- Compound: "O=C(C=Cn1cnc(-c2cc(C(F)(F)F)cc(C(F)(F)F)c2)n1)NNc1cnccn1 + Cc1cncc(-c2nc(NCCc3c[nH]c4ccccc34)c3ncn(C(C)C)c3n2)c1"
  System tested: "743489-274-T-PDC complex spheroid growth"
  Group label: "0 (no)"
- Compound: "Nc1ncn(C2CC(O)C(CO)S2)c(=O)n1 (configuration not stated) + Cc1ccccc1N=Nc1ccc(NC(=O)c2ccnn2C)c(C)c1"
  System tested: "743489-274-T-PDC complex spheroid growth"
  Group label: "0 (no)"
- Compound: "O=C(C=Cn1cnc(-c2cc(C(F)(F)F)cc(C(F)(F)F)c2)n1)NNc1cnccn1 + Cc1ccccc1N=Nc1ccc(NC(=O)c2ccnn2C)c(C)c1"
  System tested: "743489-274-T-PDC complex spheroid growth"
  Group label: "0 (no)"
- Compound: "Nc1ncn(C2CC(O)C(CO)S2)c(=O)n1 (configuration not stated) + CC(CO)NC(=O)c1cc(-c2ccc(Cl)cc2)nn(-c2cnn(C)c2)c1=O"
  System tested: "743489-274-T-PDC complex spheroid growth"
  Group label: "0 (no)"
- Compound: "CCN(c1cc(-c2ccc(CN3CCOCC3)cc2)cc(C(=O)NCc2c(C)cc(C)[nH]c2=O)c1C)C1CCOCC1 + CC(CO)NC(=O)c1cc(-c2ccc(Cl)cc2)nn(-c2cnn(C)c2)c1=O"
  System tested: "743489-274-T-PDC complex spheroid growth"
  Group label: "0 (no)"
- Compound: "CCN(c1cc(-c2ccc(CN3CCOCC3)cc2)cc(C(=O)NCc2c(C)cc(C)[nH]c2=O)c1C)C1CCOCC1 + Cc1cncc(-c2nc(NCCc3c[nH]c4ccccc34)c3ncn(C(C)C)c3n2)c1"
  System tested: "743489-274-T-PDC complex spheroid growth"
  Group label: "0 (no)"
- Compound: "CCN(c1cc(-c2ccc(CN3CCOCC3)cc2)cc(C(=O)NCc2c(C)cc(C)[nH]c2=O)c1C)C1CCOCC1 + Cc1ccccc1N=Nc1ccc(NC(=O)c2ccnn2C)c(C)c1"
  System tested: "743489-274-T-PDC complex spheroid growth"
  Group label: "1 (yes)"

Switching to the query record.
Task: # strict comparison: is reported viability, T/C < 80%? input = Nc1ncn(C2CC(O)C(CO)S2)c(=O)n1 (configuration not stated) + Cc1cncc(-c2nc(NCCc3c[nH]c4ccccc34)c3ncn(C(C)C)c3n2)c1
Output: 0 (no)

All figures here come from PubChem BioAssay AID1919002.
